target: Phosphatidylinositol 4,5-bisphosphate 3-kinase catalytic subunit delta isoform (Homo sapiens, UniProt O00329); assay: Scintillation Proximity Assay: PI3Kδ:The kinase reaction was conducted in polystyrene 384-well matrix white plate from Thermo Fisher Scientific in a final volume of 25 μL. Inhibitors were first diluted serially in DMSO and added to the plate wells before the addition of other reaction components. The final concentration of DMSO in the assay was 0.5%. The PI3K assays were carried out at room temperature in 20 mM MOPS, pH 6.7, 10 mM MgCl2, 5 mM DTT and CHAPS 0.03%. Reactions were initiated by the addition of ATP, the final reaction mixture consisted of 20 μM PIP2, 20 μM ATP, 0.2 μCi [γ-33P] ATP, 4 nM PI3Kδ. Reactions were incubated for 210 min and terminated by the addition of 40 μL SPA beads suspended in quench buffer: 150 mM potassium phosphate pH 8.0, 20% glycerol. 25 mM EDTA, 400 μM ATP. The final concentration of SPA beads was 1.0 mg/mL. After the plate sealing, plates were shaken overnight at room temperature and centrifuged at 1800 rpm for 10 minutes, the radioactivity of the product was determined by scintillation counting on Topcount (Perkin-Elmer).
Sequence (O00329 whole entry, canonical isoform): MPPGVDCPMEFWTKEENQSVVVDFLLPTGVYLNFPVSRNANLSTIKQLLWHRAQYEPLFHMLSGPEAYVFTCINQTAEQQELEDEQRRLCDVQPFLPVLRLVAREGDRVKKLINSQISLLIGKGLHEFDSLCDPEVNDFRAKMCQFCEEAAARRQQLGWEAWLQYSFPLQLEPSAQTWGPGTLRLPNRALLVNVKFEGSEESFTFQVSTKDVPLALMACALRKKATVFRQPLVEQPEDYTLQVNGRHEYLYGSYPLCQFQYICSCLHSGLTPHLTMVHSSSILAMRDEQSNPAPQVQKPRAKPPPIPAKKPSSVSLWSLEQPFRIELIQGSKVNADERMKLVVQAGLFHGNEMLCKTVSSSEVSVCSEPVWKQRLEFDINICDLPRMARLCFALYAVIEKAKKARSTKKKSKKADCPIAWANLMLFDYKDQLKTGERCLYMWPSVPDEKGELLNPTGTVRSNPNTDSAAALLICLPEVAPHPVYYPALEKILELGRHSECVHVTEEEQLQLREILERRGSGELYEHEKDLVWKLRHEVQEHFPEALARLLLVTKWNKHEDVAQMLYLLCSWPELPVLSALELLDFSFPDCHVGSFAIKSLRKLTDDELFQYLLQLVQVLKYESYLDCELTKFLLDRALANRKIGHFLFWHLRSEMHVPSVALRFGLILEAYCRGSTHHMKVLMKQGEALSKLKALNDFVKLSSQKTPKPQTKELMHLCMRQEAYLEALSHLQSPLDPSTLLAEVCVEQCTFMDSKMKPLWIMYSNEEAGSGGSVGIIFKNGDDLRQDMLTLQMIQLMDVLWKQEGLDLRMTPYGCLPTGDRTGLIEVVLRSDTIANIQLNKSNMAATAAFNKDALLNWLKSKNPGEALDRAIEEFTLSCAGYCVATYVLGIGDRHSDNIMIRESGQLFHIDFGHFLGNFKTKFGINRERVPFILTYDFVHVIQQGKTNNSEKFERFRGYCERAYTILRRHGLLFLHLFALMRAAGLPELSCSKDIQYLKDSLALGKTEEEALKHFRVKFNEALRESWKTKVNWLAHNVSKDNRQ
pIC50: −log10 of the molar value.
Recorded metric: pIC50

Lookup: Entry N#CCC(C1CCN(c2nc3cccnc3o2)C1)n1cc(-c2ncnc3[nH]ccc23)cn1 (stereo unspecified) has what pIC50?
Found: > 8.00
